test system: HOP-92; test: NCI tumour cell line growth inhibition, 48 h
The source made the active and inactive calls. Cut-off read from the data, not from the text of the source: active = GI50 up to about 1.1 µM and inactive = higher.
Reply using exactly one outcome from active, inactive

Which result was noted for this compound in the test: C=C1CC(C/C=C(\C)CC2CC(=C)C(=O)O2)OC1=O (stereo not given)
inactive

Called result for `CN(C)CCn1c(=O)nc2c3c(c([N+](=O)[O-])ccc31)Nc1ccc(O)cc1-2`
inactive

Which outcome did this test record for the compound COC(=O)C1=CCC2c3[nH]c4ccccc4c3CCN2C1 (stereo not given) ?
inactive

Record lookup: outcome of this test for CC(C)(C)c1cc(C(O)(C(F)(F)F)C(F)(F)F)c2c(c1)C(C(F)(F)F)(C(F)(F)F)OC(C(C)(C)C)N2 (stereo not given) ?
active

Query: recorded result category for C=C1C(=O)OC2/C=C(/C)C(OC(C)=O)CC(O)/C(C)=C\C(OC(=O)/C(C)=C\C)C12 (stereo not given) in this test
inactive
